B1: library; numbered along this chain (parent)
chain: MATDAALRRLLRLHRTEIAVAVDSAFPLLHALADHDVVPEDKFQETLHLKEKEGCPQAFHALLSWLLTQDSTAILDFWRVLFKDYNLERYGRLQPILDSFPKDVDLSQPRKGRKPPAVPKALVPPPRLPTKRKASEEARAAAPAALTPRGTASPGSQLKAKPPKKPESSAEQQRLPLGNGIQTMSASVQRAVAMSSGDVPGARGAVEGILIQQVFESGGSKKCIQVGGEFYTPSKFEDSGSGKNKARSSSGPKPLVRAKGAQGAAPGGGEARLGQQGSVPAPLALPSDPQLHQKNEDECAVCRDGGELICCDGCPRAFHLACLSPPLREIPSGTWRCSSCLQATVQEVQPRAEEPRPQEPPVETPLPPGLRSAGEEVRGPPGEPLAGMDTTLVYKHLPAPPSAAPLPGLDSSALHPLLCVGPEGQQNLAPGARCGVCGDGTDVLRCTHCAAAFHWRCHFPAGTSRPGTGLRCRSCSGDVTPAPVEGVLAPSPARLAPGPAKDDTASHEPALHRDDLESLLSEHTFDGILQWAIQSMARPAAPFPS

variants of: B1; assay: AIRE transcriptional activation functional score (insulin promoter-GFP; nonsense median 0, synonymous median 1) (normalised score); higher = higher AIRE activity (more reporter activation); settings: with insulin promoter-GFP reporter in HEK293
The following variants are listed with their measured AIRE transcriptional activation functional score values.
I'd appreciate a reply containing only the number, no unit.

Recorded AIRE transcriptional activation functional score, per entry:
P315M	1.22
C419S	0.615
R8D	0.401

Query (variant): P116T ; field requested: AIRE transcriptional activation functional score
0.481

Query (variant): A61F ; field requested: AIRE transcriptional activation functional score
0.26

Query (variant): K245Y ; field requested: AIRE transcriptional activation functional score
1.21
